The following binders are listed with their measured SK-Br-3 pAkt (S473) IC50 values.
- MEASURED_ON: Human HER3, endogenous, on human cancer cell lines (SK-Br-3, MCF7, BT-474) (human, UniProt P21860 20-1342)
- Sequence (P21860 20-1342): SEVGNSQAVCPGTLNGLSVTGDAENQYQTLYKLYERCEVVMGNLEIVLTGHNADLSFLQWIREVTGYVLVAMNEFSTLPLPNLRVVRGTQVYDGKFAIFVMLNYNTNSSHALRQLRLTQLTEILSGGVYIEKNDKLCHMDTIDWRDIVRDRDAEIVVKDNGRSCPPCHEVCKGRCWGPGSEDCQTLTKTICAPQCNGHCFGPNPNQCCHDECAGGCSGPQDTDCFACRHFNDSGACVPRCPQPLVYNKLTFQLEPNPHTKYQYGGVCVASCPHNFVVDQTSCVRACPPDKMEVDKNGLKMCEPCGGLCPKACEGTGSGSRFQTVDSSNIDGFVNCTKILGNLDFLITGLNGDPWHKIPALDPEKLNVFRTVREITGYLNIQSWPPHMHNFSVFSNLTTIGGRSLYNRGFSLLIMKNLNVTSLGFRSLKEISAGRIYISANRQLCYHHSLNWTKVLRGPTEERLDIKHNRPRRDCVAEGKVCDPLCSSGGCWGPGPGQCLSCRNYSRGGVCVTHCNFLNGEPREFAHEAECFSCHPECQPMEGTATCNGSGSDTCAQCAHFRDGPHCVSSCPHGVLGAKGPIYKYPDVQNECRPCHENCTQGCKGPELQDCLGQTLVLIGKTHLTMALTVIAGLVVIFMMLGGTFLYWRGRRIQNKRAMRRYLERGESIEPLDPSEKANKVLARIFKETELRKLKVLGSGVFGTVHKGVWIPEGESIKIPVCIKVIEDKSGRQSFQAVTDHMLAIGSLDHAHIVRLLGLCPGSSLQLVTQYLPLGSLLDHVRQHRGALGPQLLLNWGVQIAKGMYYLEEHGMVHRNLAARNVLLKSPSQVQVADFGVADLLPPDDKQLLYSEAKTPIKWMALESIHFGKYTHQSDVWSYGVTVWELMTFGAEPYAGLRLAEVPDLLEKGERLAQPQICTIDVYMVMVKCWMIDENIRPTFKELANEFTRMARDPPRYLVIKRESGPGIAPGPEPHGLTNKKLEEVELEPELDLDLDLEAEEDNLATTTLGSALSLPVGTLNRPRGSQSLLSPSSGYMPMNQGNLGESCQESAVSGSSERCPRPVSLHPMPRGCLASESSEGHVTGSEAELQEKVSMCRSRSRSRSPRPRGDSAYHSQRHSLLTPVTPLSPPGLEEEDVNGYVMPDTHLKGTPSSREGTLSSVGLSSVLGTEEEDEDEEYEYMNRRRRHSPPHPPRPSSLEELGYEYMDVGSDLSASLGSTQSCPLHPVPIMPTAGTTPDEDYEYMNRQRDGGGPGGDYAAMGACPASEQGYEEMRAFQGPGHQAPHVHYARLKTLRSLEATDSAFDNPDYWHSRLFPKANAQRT
- TEST_DESCRIPTION: cell-based or functional assay
Hi! Could you send only the number? It should be in pM, unit omitted.

BINDER	ENDPOINT_NAME	RECORDED_VALUE
MOR13768 (antibody, human IgG1, kappa, V domains shown, tested as IgG) VH: QVQLVQSGAEVKKPGESLKISCKGSGYSFTSSWVAWVRQMPGKGLEWMGIIYPGQSDTIYSPSFQGQVTISADKSISTAYLQWSSLKASDTAMYYCARVHIIQPPSAWSYNAMDVWGQGTLVTVSS VL: DIQMTQSPSSLSASVGDRVTITCRASQSISTYLNWYQQKPGKAPKLLIFGASNLQSGVPSRFSGSGSGTDFTLTISSLQPEDFATYYCQQSITELFTFGQGTKVEIKR	SK-Br-3 pAkt (S473) IC50	105
MOR13868 (antibody, human IgG1, kappa, V domains shown, tested as IgG) VH: QVQLVQSGAEVKKPGESLKISCKGSGYSFSNYWIAWVRQMPGKGLEWMGIIYPGLSDTIYSPSFQGQVTISADKSISTAYLQWSSLKASDTAMYYCARVHIIQPPSAWSYNAMDVWGQGTLVTVSS VL: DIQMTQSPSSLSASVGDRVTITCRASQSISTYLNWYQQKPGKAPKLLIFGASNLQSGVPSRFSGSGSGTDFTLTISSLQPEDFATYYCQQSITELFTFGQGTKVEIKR	SK-Br-3 pAkt (S473) IC50	78

Which SK-Br-3 pAkt (S473) IC50 is reported for this binder? MOR13867 (antibody, human IgG1, kappa, V domains shown, tested as IgG) VH: QVQLVQSGAEVKKPGESLKISCKGSGYSFSNYWIAWVRQMPGKGLEWMGIIYPGQSDTIYSPSFQGQVTISADKSISTAYLQWSSLKASDTAMYYCARVHIIQPPSAWSYNAMDVWGQGTLVTVSS VL: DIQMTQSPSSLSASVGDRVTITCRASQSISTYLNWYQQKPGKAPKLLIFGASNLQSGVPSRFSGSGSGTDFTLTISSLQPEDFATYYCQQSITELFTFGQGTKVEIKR
120
